Hi there, I'd appreciate the recorded herbicidal effect rating, CYPIR for every entry that follows.
- Test system: Cyperus iria
- ASSAY OVERVIEW: Preemergence weed control under flooded paddy conditions, CYPIR (Rice Flatsedge); also: meaning of each grade not given here
- Type: in vivo
- MEASUREMENT CONDITIONS: Rate 0.0320 kg/ha; preemergence weeds, flooded paddy; rated three to four weeks after treatment

q: Consider the compound C#CCOC(=O)COc1cccc(-c2nsc3ccc(-n4c(=O)cc(C(F)(F)F)n(C)c4=O)cc23)c1 and give its recorded herbicidal effect rating, CYPIR.
a: 6.0

q: Consider the compound CC(Oc1ccccc1-c1nsc2ccc(-n3c(=O)cc(C(F)(F)F)n(C)c3=O)cc12)C(=O)O (stereo not shown) and give its recorded herbicidal effect rating, CYPIR.
a: 9.0

q: Consider the compound Cn1c(C(F)(F)F)cc(=O)n(-c2ccc3snc(CN=C=S)c3c2)c1=O and give its recorded herbicidal effect rating, CYPIR.
a: 0.0

q: Consider the compound CC(O)c1nsc2ccc(-n3c(=O)cc(C(F)(F)F)n(C)c3=O)cc12 (stereo not shown) and give its recorded herbicidal effect rating, CYPIR.
a: 0.0

q: Consider the compound Cn1c(C(F)(F)F)cc(=O)n(-c2ccc3snc(-c4ccccc4OCC(=O)NS(=O)(=O)CCl)c3c2)c1=O and give its recorded herbicidal effect rating, CYPIR.
a: 6.0

q: Consider the compound Cn1c(C(F)(F)F)cc(=O)n(-c2ccc3snc(C(=O)Oc4ccccc4)c3c2)c1=O and give its recorded herbicidal effect rating, CYPIR.
a: 3.0

q: Consider the compound Cn1c(C(F)(F)F)cc(=O)n(-c2ccc3snc(C(Cl)Br)c3c2)c1=O (stereo not shown) and give its recorded herbicidal effect rating, CYPIR.
a: 3.0
